target.under.test: METTL3 WT;METTL14 WT (Homo sapiens;Homo sapiens, UniProt Q86U44;Q9HCE5 1-580;1-456, |)
Sequence (Q86U44 whole entry, chain 1 of 2): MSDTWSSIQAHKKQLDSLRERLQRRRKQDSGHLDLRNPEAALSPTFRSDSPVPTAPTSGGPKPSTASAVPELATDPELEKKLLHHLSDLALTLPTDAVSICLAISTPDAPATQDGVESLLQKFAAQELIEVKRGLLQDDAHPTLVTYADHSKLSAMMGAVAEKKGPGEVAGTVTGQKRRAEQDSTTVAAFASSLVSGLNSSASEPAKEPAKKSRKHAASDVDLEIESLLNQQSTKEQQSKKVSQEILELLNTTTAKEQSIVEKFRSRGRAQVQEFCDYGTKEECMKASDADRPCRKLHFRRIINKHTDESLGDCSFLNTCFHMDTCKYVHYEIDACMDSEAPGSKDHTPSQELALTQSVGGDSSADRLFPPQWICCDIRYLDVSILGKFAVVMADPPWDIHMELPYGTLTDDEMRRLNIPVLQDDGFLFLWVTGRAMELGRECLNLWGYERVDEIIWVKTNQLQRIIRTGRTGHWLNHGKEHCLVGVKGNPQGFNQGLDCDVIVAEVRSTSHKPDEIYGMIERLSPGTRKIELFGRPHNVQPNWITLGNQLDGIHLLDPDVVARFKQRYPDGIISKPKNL
Sequence (Q9HCE5 whole entry, chain 2 of 2): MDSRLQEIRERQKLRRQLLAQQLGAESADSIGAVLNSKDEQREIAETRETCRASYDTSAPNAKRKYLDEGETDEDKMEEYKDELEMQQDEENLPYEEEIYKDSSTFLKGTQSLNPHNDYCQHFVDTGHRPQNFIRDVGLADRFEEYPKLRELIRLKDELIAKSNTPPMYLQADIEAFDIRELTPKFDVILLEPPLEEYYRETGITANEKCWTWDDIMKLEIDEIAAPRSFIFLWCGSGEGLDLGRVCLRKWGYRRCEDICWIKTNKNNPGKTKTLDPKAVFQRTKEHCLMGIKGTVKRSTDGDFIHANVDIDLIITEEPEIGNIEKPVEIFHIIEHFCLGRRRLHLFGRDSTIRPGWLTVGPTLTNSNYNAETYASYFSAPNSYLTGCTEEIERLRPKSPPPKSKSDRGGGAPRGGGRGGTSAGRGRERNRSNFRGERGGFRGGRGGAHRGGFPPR
protocol.description: SPR; 1:1 model; FP: 10 mM HEPES pH 7.5, 50 mM KCl, 5 nM RNA; SPR: 10 mM HEPES pH 7.5, 150 mM KCl, 0.05% P20, 25 C; 2-Ap: 50 mM Tris pH 8.0, 10 mM MgCl2, 0.5 uM RNA, read at 37
condition.parameters: protein: recombinant;recombinant; tags: His-tag removed by TEV;; copies: 1;1; linear single strand
Record form. Attribute: pKd. Fill in for each entry.
Numbers only, as −log10 of the molar value.

binder	pKd
CUUCGGACUCUGCU (ssRNA, m6A at position 7) [r6T-m6A (biotinyl)]	5.51

# evaluate next
Incoming: For CUUCGGACUCUGCU (ssRNA) [r6T (biotinyl)] , write its pKd.
Outgoing: 5.87
